- experimental.target: h5-HT4b (Homo sapiens)
- Construct: expressed in transfected cells; host or cells: HEK 293 (clone 9), membrane preparation
- Sequence (Q13639 whole entry): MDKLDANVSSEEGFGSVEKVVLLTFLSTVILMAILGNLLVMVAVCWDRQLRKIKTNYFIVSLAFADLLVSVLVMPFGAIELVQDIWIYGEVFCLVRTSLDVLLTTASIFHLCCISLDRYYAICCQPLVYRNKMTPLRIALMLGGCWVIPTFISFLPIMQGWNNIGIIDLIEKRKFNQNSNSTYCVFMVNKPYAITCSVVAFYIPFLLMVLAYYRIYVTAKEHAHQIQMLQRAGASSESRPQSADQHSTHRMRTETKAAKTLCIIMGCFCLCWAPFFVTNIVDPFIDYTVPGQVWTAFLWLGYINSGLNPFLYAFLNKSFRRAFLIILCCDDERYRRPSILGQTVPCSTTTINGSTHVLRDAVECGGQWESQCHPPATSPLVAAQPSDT
- test.description: 5HT4 antagonism: [3H]GR113808 binding to membranes of h5-HT4b-HEK 293 clone 9 cells
- measurement.parameters: displacement of [3H]GR113808 0.1 nM, h5-HT4b-HEK 293 membranes, 30 min at 25° C.; read-out: pIC50 (5HT4 antagonistic data) (converted)
measured.metric: log10 of IC50 (log10 of the value in µM)
Hello, just confirming the data are log10 of IC50 with units of µM.

Look up log10 of IC50 for this compound: CNc1cc2c(c(C(=O)NC[C@@H]3CCN(CCOC)C[C@H]3O)c1)OCCCO2 [compound 33]
-0.73

I am curious: what log10 of IC50 value has been reported for Nc1cc2c(c(C(=O)NC[C@@H]3CCN(Cc4ccc(F)cc4)C[C@H]3O)c1)OCCCO2 [compound 55] ?
-1.19

Sample CNc1cc2c(c(C(=O)NC[C@@H]3CCN(CCCC(C)=O)C[C@H]3O)c1)OCCCO2 [compound 77] — what was its log10 of IC50?
-1.16

Value lookup for log10 of IC50; key = CC(=O)CCCN1CC[C@@H](CNC(=O)c2cc(N)cc3c2OCCO3)[C@H](O)C1 [compound 83]
-1.83

Entry Cc1cc2c(c(C(=O)NC[C@@H]3CCN(CCCOC(=O)N4CCCC4)C[C@H]3O)c1)OCCCO2 [compound 250] has what log10 of IC50?
-3.12

Continuing:
For the compound Nc1cc2c(c(C(=O)NC[C@@H]3CCN(CCOCCO)C[C@H]3O)c1)OCCO2 [compound 86] , what log10 of IC50 is on record?
-0.88

Suppose we examine the compound CCNc1cc2c(c(C(=O)NC[C@@H]3CCN(CCC4OCCO4)C[C@H]3O)c1)OCCCO2 [compound 176] ; what log10 of IC50 value has been reported?
-1.79

Can you share its log10 of IC50? I mean this compound: Nc1cc(C(=O)NC[C@@H]2CCN(CCC3OCCO3)C[C@H]2O)c2c(c1Br)OCCCO2 [compound 146]
-1.46

Entry Nc1cc(C(=O)NC[C@@H]2CCNC[C@H]2O)c2c(c1Cl)OCCCO2 [compound 188] has what log10 of IC50?
-0.08

Given CNCCCCN1CC[C@@H](CNC(=O)c2cc(N)c(Cl)c3c2OCCO3)[C@H](O)C1 [compound 89] , state its recorded log10 of IC50.
-1.51

* * *

- experimental.target: h5-HT4b (Homo sapiens)
- Construct: expressed in transfected cells; host or cells: HEK 293 (clone 9), membrane preparation
- test.description: 5HT4 antagonism: [3H]GR113808 binding to membranes of h5-HT4b-HEK 293 clone 9 cells
- measurement.parameters: displacement of [3H]GR113808 0.1 nM, h5-HT4b-HEK 293 membranes, 30 min at 25° C.; read-out: pIC50 (5HT4 antagonistic data) (converted)
Labelling: IC50 reported below 20 nM becomes t; at or above becomes f.

Problem: For the molecule COCCCN1CC[C@@H](CNC(=O)c2cc(OC)cc3c2OCCCO3)[C@H](O)C1 , is IC50 under 20 nM?
t

Further cases:
Item CCCNc1cc2c(c(C(=O)NC[C@@H]3CCN(CCCOC)C[C@H]3O)c1)OCCCO2 : IC50 beneath 20 nM, strictly?
f

Is 20 nM strictly greater than the molecule's reported IC50? molecule: CNc1cc(C(=O)NC[C@@H]2CCN(CCCOC)C[C@H]2O)c2c(c1Cl)OCCO2
t

Field: below-cutoff. Rule: recorded IC50 strictly less than 20 nM. Subject: Cc1cc2c(c(C(=O)NC[C@@H]3CCN(CC4CC4)C[C@H]3O)c1)OCCCO2
t

Confirm or reject: IC50 of N#CCCCN1CC[C@@H](CNC(=O)c2cc(N)cc3c2OCCCO3)[C@H](O)C1 lies strictly below 20 nM
f

Does CC(=O)CCCN1CC[C@@H](CNC(=O)c2cc(C#N)cc3c2OCCCO3)[C@H](O)C1 have IC50 strictly under 20 nM?
t

Determine whether this molecule shows IC50 lower than 20 nM (ties excluded): COc1cc2c(c(C(=O)NC[C@@H]3CCN(CCC4OCCO4)C[C@H]3O)c1)OCCCO2
t

Bench note: check whether CO[C@@H]1CN(CCCO)CC[C@H]1CNC(=O)c1cc(C#N)cc2c1OCCCO2 shows IC50 below 20 nM
f

Quick check: IC50 of CNc1cc2c(c(C(=O)NC[C@@H]3CCN(CCC4OCCO4)C[C@H]3O)c1)OCCCO2 under 20 nM?
f

Record Cc1cc2c(c(C(=O)NCC3(O)CCN(CCCC#N)CC3)c1)OCCCO2 : is its IC50 strictly below 20 nM?
f

Find out if reported IC50 for CNc1cc2c(c(C(=O)NC[C@@H]3CCN(CCNS(C)(=O)=O)C[C@H]3O)c1)OCCO2 is less than 20 nM
f

Just wondering, is IC50 of COCCCN1CC[C@@H](CNC(=O)c2cc(COC)cc3c2OCCCO3)[C@H](O)C1 below 20 nM?
f

Lab note: confirm whether the reported IC50 for this molecule is below 20 nM, equality not counting. molecule: Cc1cc2c(c(C(=O)NC[C@@H]3CCN(CCCC4(C)OCCO4)C[C@H]3O)c1)OCCCO2
t

* * *

Measured melting point of individual entries

Some compounds with known melting point results, for comparison:
Fill in the blank: the reported melting point of CCCCN1CC[C@@H](CNC(=O)c2cc(N)cc3c2OCCO3)[C@H](O)C1 is ____.
> 160 °C

Consider the compound shown here: Cc1cc2c(c(C(=O)NC[C@@H]3CCN(CCCC(=O)N4CCN(C)CC4)C[C@H]3O)c1)OCCCO2 What is its recorded melting point?
> 112 °C

New cases:
// lookup melting point for CNCCCN1CC[C@@H](CNC(=O)c2cc(NC)cc3c2OCCCO3)[C@H](O)C1 (hydrate or solvate)
> 130 °C

* * *

- experimental.target: h5-HT4b (Homo sapiens)
- Construct: expressed in transfected cells; host or cells: HEK 293 (clone 9), membrane preparation
- test.description: 5HT4 antagonism: [3H]GR113808 binding to membranes of h5-HT4b-HEK 293 clone 9 cells
- measurement.parameters: displacement of [3H]GR113808 0.1 nM, h5-HT4b-HEK 293 membranes, 30 min at 25° C.; read-out: pIC50 (5HT4 antagonistic data) (converted)
Friendly reminder: IC50 below 10 nM is class 1, at or above is class 0.

is_below(IC50, 10 nM) for Cc1cc2c(c(C(=O)NC[C@@H]3CCN(CCCCO)C[C@H]3O)c1)OCCCO2 [compound 225] ?
class 1

* * *

- experimental.target: h5-HT4b (Homo sapiens)
- Construct: expressed in transfected cells; host or cells: HEK 293 (clone 9), membrane preparation
- test.description: 5HT4 antagonism: [3H]GR113808 binding to membranes of h5-HT4b-HEK 293 clone 9 cells
- measurement.parameters: displacement of [3H]GR113808 0.1 nM, h5-HT4b-HEK 293 membranes, 30 min at 25° C.; read-out: pIC50 (5HT4 antagonistic data) (converted)
Classify: true when IC50 is strictly less than 10 nM; false when IC50 is not.

A selection of reference data follows.
Lab note: confirm whether the reported IC50 for this compound is below 10 nM, equality not counting. compound: COCCCN1CC[C@@H](CNC(=O)c2cc(C)cc3c2OCCCO3)[C@H](O)C1 [compound 200]
true

Please state whether IC50 is below 10 nM for CS(=O)(=O)NCCN1CC[C@@H](CNC(=O)c2cc(N)cc3c2OCCCO3)[C@H](O)C1
false

Consider the compound COc1cc2c(c(C(=O)NC[C@@H]3CCN(CCCO)C[C@H]3O)c1)OCCCO2 . Is its IC50 strictly less than 10 nM?
false

Item Nc1cc(C(=O)NC[C@@H]2CCNC[C@H]2O)c2c(c1Br)OCCO2 : IC50 beneath 10 nM, strictly?
false

For this compound, is IC50 lower than 10 nM? Cc1cc2c(c(C(=O)NC[C@@H]3CCN(CCCc4ccncc4)C[C@H]3O)c1)OCCCO2
true

Given N#CCc1cc2c(c(C(=O)NC[C@@H]3CCN(CCC4OCCO4)C[C@H]3O)c1)OCCCO2 , is recorded IC50 strictly lower than 10 nM?
false

---
# check: IC50 < 10 nM for COCCCCN1CC[C@H](CNC(=O)c2cc(C)cc3c2OCCCO3)[C@H](O)C1
true

Determine if CNCCCCN1CC[C@@H](CNC(=O)c2cc(OC)cc3c2OCCCO3)[C@H](O)C1 shows IC50 strictly lower than 10 nM.
false

IC50 under 10 nM? Item: N#CCCCCN1CC[C@@H](CNC(=O)c2cc(N)c(Br)c3c2OCCO3)[C@H](O)C1
false

Hello, is IC50 of the following compound strictly smaller than 10 nM? CCCNc1cc2c(c(C(=O)NC[C@@H]3CCN(CCCC#N)C[C@H]3O)c1)OCCCO2
false

Take the compound CC(C)Nc1cc2c(c(C(=O)NC[C@@H]3CCN(CCC4OCCO4)C[C@H]3O)c1)OCCCO2 and say whether its IC50 is less than 10 nM.
false

Please let me know if Nc1cc(C(=O)NC[C@@H]2CCN(CCC3OCCO3)C[C@H]2O)c2c(c1Cl)OCCCO2 shows IC50 below 10 nM.
false

Does the reported IC50 of Nc1cc(C(=O)NC[C@@H]2CCN(CCC3OCCO3)C[C@H]2O)c2c(c1Br)OCCO2 stay below 10 nM?
false

Find out if reported IC50 for CNc1cc(C(=O)NC[C@@H]2CCN(CCCC#N)C[C@H]2O)c2c(c1Cl)OCCO2 is less than 10 nM
false

Strictly below 10 nM in IC50? CC1(CCCN2CC[C@H](CNC(=O)c3cc(C#N)cc4c3OCCCO4)[C@@H](O)C2)OCCO1
true

Regarding COCCCN1CC[C@@H](CNC(=O)c2cc(C#N)cc3c2OCCCO3)[C@H](O)C1 [compound 202] , kindly confirm whether its IC50 is beneath 10 nM.
true

Is IC50 of CC(=O)CCCN1CC[C@@H](CNC(=O)c2cc(N)cc3c2OCCCO3)[C@H](O)C1 strictly below 10 nM?
false
